For each entry below, report its viability, T/C value.
# Tested on: 616215-338-R-J1-PDC complex spheroid viability;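 also: spheroids exposed to compounds for one week before readout; percent viability relative to DMSO vehicle wells taken as 100%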
# Experiment: Anticancer human tumor 616215-338-R-J1-PDC patient-derived colon adenocarcinoma cell line growth inhibition [POLQ]
# Condition label: second compound 1 µM; first compound 1 µM; stronger effect = lower value
One number for each entry, in %.

// known answers, use as guide
Molecule	viability, T/C [%]
O=C(c1cc(Cc2n[nH]c(=O)c3ccccc23)ccc1F)N1CCN(C(=O)C2CC2)CC1 + Cc1cccc(N(C)C(=O)C2C(O)CCN2c2nc(C)cc(C(F)(F)F)c2C#N)c1	101
CC(C)n1c(=O)n(C)c2cnc3cc(F)c(-c4ccc(OCCCN5CCCCC5)nc4)cc3c21 + COC1C(OC(N)=O)C(O)C(Oc2ccc3c(O)c(NC(=O)c4ccc(O)c(CC=C(C)C)c4)c(=O)oc3c2C)OC1(C)C	106

I'm hoping you can list viability, T/C for every molecule here, please.
1. COc1ccc([C@@H](O)c2cc(-c3ncnc4cc(N5CCOCC5)ccc34)c(F)cc2Cl)nn1 + COC1C(OC(N)=O)C(O)C(Oc2ccc3c(O)c(NC(=O)c4ccc(O)c(CC=C(C)C)c4)c(=O)oc3c2C)OC1(C)C
2. CC1COCCN1c1cc(-c2ccnn2C)c2ccnc(-c3ccn[nH]3)c2n1 (stereo not given) + Cc1cccc(N(C)C(=O)C2C(O)CCN2c2nc(C)cc(C(F)(F)F)c2C#N)c1
3. COc1cccc2c1C(=O)c1c(O)c3c(c(O)c1C2=O)CC(O)(C(=O)CO)CC3OC1CC(N)C(O)C(C)O1 (stereo not given) + COC1C(OC(N)=O)C(O)C(Oc2ccc3c(O)c(NC(=O)c4ccc(O)c(CC=C(C)C)c4)c(=O)oc3c2C)OC1(C)C

Ans.
1: 117; 2: 57.1; 3: 53.7
